Entries and their viability, T/C values follow.
- Tested on: 855422-203-R-J1-PDC complex spheroid viability
- experimental details: Anticancer human tumor 855422-203-R-J1-PDC patient-derived bladder carcinoma cell line growth inhibition [POLQ]
- measurement conditions: second compound 10 µM; first compound 1 µM; stronger effect = lower value
Response body: numeric value in %, unit text excluded.

// solved cases for viability, T/C follow
compound: COc1cc2cc(C(=O)CCC(=O)O)sc2cc1OC + Nc1ccc(C#CCN(C(=O)Cc2ncc(C(F)(F)F)cc2C(F)(F)F)c2ccc(F)cc2)nn1
endpoint: viability, T/C
recorded number: 102
//
compound: CC1COCCN1c1cc(-c2ccnn2C)c2ccnc(-c3ccn[nH]3)c2n1 (centres undefined) + COC1C(OC(N)=O)C(O)C(Oc2ccc3c(O)c(NC(=O)c4ccc(O)c(CC=C(C)C)c4)c(=O)oc3c2C)OC1(C)C
endpoint: viability, T/C
recorded number: 10.7
//
compound: CCc1cc2c(N3CCc4c(cc(Cn5ccnc5)cc4-c4cn(C)nc4C(F)(F)F)C3=O)cc(C)nc2c(OC)n1 + COC1C(OC(N)=O)C(O)C(Oc2ccc3c(O)c(NC(=O)c4ccc(O)c(CC=C(C)C)c4)c(=O)oc3c2C)OC1(C)C
endpoint: viability, T/C
recorded number: 56.6

Now look at this entry.
So for O=C(Nc1ccc(O)c(NS(=O)(=O)c2ccc(F)cc2)c1)c1ccc(-c2ccccc2)cc1 + Cc1cccc(N(C)C(=O)C2C(O)CCN2c2nc(C)cc(C(F)(F)F)c2C#N)c1 , the logged viability, T/C turned out to be 106

====

Entries and their viability, T/C values follow.
- Test system: 855422-203-R-J1-PDC complex spheroid viability
- experimental details: Anticancer human tumor 855422-203-R-J1-PDC cell line growth inhibition [POLQ];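 further: spheroids exposed to compounds for seven days before readout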
- measurement conditions: second compound 0.1 µM; first compound 3.16 µM; stronger effect = lower value
Response body: numeric value in %, unit text excluded.

// solved cases for viability, T/C follow
molecule: O=C(Nc1ccc(O)c(NS(=O)(=O)c2ccc(F)cc2)c1)c1ccc(-c2ccccc2)cc1 + Nc1ccc(C#CCN(C(=O)Cc2ncc(C(F)(F)F)cc2C(F)(F)F)c2ccc(F)cc2)nn1
recorded number: 117
--
molecule: CCc1cc2c(N3CCc4c(cc(Cn5ccnc5)cc4-c4cn(C)nc4C(F)(F)F)C3=O)cc(C)nc2c(OC)n1 + Nc1ccc(C#CCN(C(=O)Cc2ncc(C(F)(F)F)cc2C(F)(F)F)c2ccc(F)cc2)nn1
recorded number: 63.5
--
molecule: CC(C)n1c(=O)n(C)c2cnc3cc(F)c(-c4ccc(OCCCN5CCCCC5)nc4)cc3c21 + Cc1cccc(N(C)C(=O)C2C(O)CCN2c2nc(C)cc(C(F)(F)F)c2C#N)c1
recorded number: 91.8
--
molecule: Nc1ccn(C2OC(CO)C(O)C2(F)F)c(=O)n1 (centres undefined) + Nc1ccc(C#CCN(C(=O)Cc2ncc(C(F)(F)F)cc2C(F)(F)F)c2ccc(F)cc2)nn1
recorded number: 12.3
--
molecule: CC1COCCN1c1cc(C2(S(C)(=N)=O)CC2)nc(-c2ccnc3[nH]ccc23)n1 (centres undefined) + COC1C(OC(N)=O)C(O)C(Oc2ccc3c(O)c(NC(=O)c4ccc(O)c(CC=C(C)C)c4)c(=O)oc3c2C)OC1(C)C
recorded number: 31.6
--
molecule: CC1COCCN1c1cc(C2(O)CC3CCC(C2)O3)c2cnn(-c3ccn[nH]3)c2n1 (centres undefined) + Cc1cccc(N(C)C(=O)C2C(O)CCN2c2nc(C)cc(C(F)(F)F)c2C#N)c1
recorded number: 6.6

So for C#Cc1c(F)ccc2cc(O)cc(-c3ncc4c(N5CC6CCC(C5)N6)nc(OCC56CCCN5CC(F)C6)nc4c3F)c12 (centres undefined) + COC1C(OC(N)=O)C(O)C(Oc2ccc3c(O)c(NC(=O)c4ccc(O)c(CC=C(C)C)c4)c(=O)oc3c2C)OC1(C)C , the logged viability, T/C turned out to be 102

So for COc1cc2cc(C(=O)CCC(=O)O)sc2cc1OC + COC1C(OC(N)=O)C(O)C(Oc2ccc3c(O)c(NC(=O)c4ccc(O)c(CC=C(C)C)c4)c(=O)oc3c2C)OC1(C)C , the logged viability, T/C turned out to be 111

So for Nc1ccn(C2OC(CO)C(O)C2(F)F)c(=O)n1 (centres undefined) + COC1C(OC(N)=O)C(O)C(Oc2ccc3c(O)c(NC(=O)c4ccc(O)c(CC=C(C)C)c4)c(=O)oc3c2C)OC1(C)C , the logged viability, T/C turned out to be 7.41
